molecular target: proliferating cell nuclear antigen (PCNA) (UniProt P12004 1-261); experiment: ITC
Sequence (P12004 whole entry): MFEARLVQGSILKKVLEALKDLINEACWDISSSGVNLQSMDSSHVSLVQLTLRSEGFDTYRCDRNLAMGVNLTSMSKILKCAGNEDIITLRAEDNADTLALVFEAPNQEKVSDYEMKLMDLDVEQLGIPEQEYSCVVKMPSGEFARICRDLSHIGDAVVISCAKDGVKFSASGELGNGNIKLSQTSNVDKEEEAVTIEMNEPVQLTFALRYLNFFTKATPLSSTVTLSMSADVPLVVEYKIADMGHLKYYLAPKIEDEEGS
Would you kindly list pKd for each of these binders?
Remember the convention: pKd equals -log10 of concentration in molar.

QUERY: Name the reported pKd value associated with the binder Ac-RKRRQTSMTDFYHSKRR-NH2 [p21_(140–156) peptide (wild-type p21 PIP-degron with flanking regions)]
RESULT: 7.17

QUERY: Also, Ac-KKKKQTSMTDFYHSKKK-NH2 [p21_(All–K) peptide] please.
RESULT: 7.06

QUERY: Also, Ac-KRKKQTSMTDFYHSRKK-NH2 [p21_(SWAP) peptide] please.
RESULT: 7.06

QUERY: Also, Ac-RRRRQTSMTDFYHSRRR-NH2 [p21_(All–R) peptide] please.
RESULT: 7.35
